Listed next: entries and their corresponding pEC50.
target: GPR119 (Homo sapiens, UniProt Q8TDV5); test: Controlling Effect of GPR119 in CRE-bla CHO-K1 Cells (EC50); conditions: GPR119 CRE-bla CHO-K1 cell line, 5 hr incubation with compound, β-lactamase LiveBLAzer-FRET B/G readout; read-out: controlling effect against GPR119 in CRE-bla CHO-K1 cell line (EC50)
Sequence (Q8TDV5 whole entry): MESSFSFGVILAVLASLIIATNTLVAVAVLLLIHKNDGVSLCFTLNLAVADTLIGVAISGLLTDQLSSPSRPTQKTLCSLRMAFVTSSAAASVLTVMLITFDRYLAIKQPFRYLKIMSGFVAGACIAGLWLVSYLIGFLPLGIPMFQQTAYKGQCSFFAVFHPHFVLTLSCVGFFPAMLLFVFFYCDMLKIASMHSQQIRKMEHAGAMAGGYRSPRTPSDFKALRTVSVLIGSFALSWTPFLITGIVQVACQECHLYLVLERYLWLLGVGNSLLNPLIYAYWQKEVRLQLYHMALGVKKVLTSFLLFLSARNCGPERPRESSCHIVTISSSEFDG
pEC50: −log10 of the molar value.

{"smiles structure": "CS(=O)(=O)c1ccc(-c2csc3c(N4CCC(c5nc(-c6ccccc6)no5)CC4)ncnc23)cc1", "pEC50": "6.00 to 7.00"}
{"smiles structure": "Cn1cc(-c2ccc(F)nc2)c2ncnc(OC3CCN(C(=O)OC(C)(C)C)CC3)c21", "pEC50": "< 6.00"}
{"smiles structure": "CC(C)(C)OC(=O)N1CCN(c2ncnc3c(-c4ccc(S(C)(=O)=O)cc4)csc23)CC1", "pEC50": "6.00 to 7.00"}
{"smiles structure": "CS(=O)(=O)c1ccc(-c2csc3c(NC4CCNCC4)ncnc23)cc1", "pEC50": "< 6.00"}
{"smiles structure": "CC(C)c1noc(N2CCC(Oc3ncnc4c(-c5ccc(S(C)(=O)=O)cc5)cn(C)c34)CC2)n1", "pEC50": "> 7.00"}
{"smiles structure": "CS(=O)(=O)c1ccc(-c2csc3c(OC4CCN(c5nccc(C(F)(F)F)n5)CC4)ncnc23)cc1", "pEC50": "< 6.00"}
{"smiles structure": "COC(=O)c1ccc(-c2csc3c(OC4CCN(c5nc(C(C)C)no5)CC4)ncnc23)cc1", "pEC50": "6.00 to 7.00"}
{"smiles structure": "CCc1cnc(N2CCC(Oc3ncnc4c(-c5ccc(S(C)(=O)=O)cc5F)cn(CC)c34)CC2)nc1", "pEC50": "> 7.00"}

----------
Listed next: entries and their corresponding EC50.
molecular target: GPR119 (Homo sapiens); test: Controlling Effect of GPR119 in CRE-bla CHO-K1 Cells (EC50); conditions: GPR119 CRE-bla CHO-K1 cell line, 5 hr incubation with compound, β-lactamase LiveBLAzer-FRET B/G readout; read-out: controlling effect against GPR119 in CRE-bla CHO-K1 cell line (EC50)

{"molecule": "CS(=O)(=O)c1ccc(-c2csc3c(OC4CCN(C(=O)c5cccnc5)CC4)ncnc23)c(F)c1 [Example 90]", "EC50": "> 1000 nM"}
{"molecule": "CCc1cnc(N2CCC(Oc3ncnc4c(-c5ccc(-n6cnnn6)cc5)cn(C)c34)CC2)nc1 [Example 122]", "EC50": "< 100 nM"}
{"molecule": "CC(C)(C)C(=O)N1CCC(Oc2ncnc3c(-c4ccc(S(C)(=O)=O)cc4F)csc23)CC1 [Example 88]", "EC50": "< 100 nM"}
{"molecule": "Cn1cc(-c2ccc(S(C)(=O)=O)cc2)c2ncnc(OC3CCN(C(=O)NC(C)(C)C)CC3)c21 [Example 40]", "EC50": "100 to 1000 nM"}
{"molecule": "CC(C)c1noc(N2CC[C@H](Oc3ncnc4c(-c5ccc(S(C)(=O)=O)cc5)cn(C)c34)C2)n1 [Example 38]", "EC50": "> 1000 nM"}
{"molecule": "CCCc1cnc(N2CCC(Oc3ncnc4c(-c5ccc(S(C)(=O)=O)cc5F)cn(CC)c34)CC2)nc1 [Example 34]", "EC50": "< 100 nM"}
{"molecule": "CS(=O)(=O)c1ccc(-c2csc3c(OC4CCN(C(=O)c5ccccc5)CC4)ncnc23)c(F)c1 [Example 89]", "EC50": "< 100 nM"}
